System: TM4 mouse Sertoli cells
Test Name: Cell growth and viability (MTT), dose-response of the drugs alone
Format: cell-based
Measurement Context: Mus musculus, TM4, 48 h, read-out: IC50 ± SE, TM4 cells, 48 h of exposure, drug alone, 50% fraction of cells affected (Fa), non-linear fitting
Assay Readout: IC50

Observed IC50, TM4 mouse Sertoli cells, CCCN(CCOc1c(Cl)cc(Cl)cc1Cl)C(=O)n1ccnc1 [PCZ, prochloraz] : ~73 µM
